Biological target: GOPC, Q9HD26
Assay: holdup assay
Design: key: below the threshold = too weak to quantify, mostly under pKd 3.1 to 4
Settings: plain residues with an end cap or a label only (N-terminal biotin on a linker: ado-ado)
Experimental Endpoint: pKd

binder="QSYPSKHDYV [CLDN18, P56856]" experimental_endpoint=pKd observed="below the threshold"
binder="RQKEVRESKC [SCN8A, Q9UQD0]" experimental_endpoint=pKd observed="below the threshold"
binder="APIAGFSSFV [SDK2, Q58EX2]" experimental_endpoint=pKd observed=4.13
